Data credit: paper PMC6021441

biological target: the molecule itself; test: AUC; sedimentation velocity (40,000 rpm) and sedimentation equilibrium (14,000 rpm); each NylC enzyme 0.34 mg ml^-1 in phosphate buffer, 20 °C; self-association of the monomer units

[
  {
    "Protein": "NylCp2-G^122Y^130A^36Q^263 mutant enzyme (D122G/H130Y/D36A/E263Q), alpha-beta heterodimer (enzyme, Arthrobacter, NylCp2 alpha subunit with four substitutions; NylCp2 beta subunit; also called NylC-G^122Y^130A^36Q^263; source: E. coli JM109, purified (ammonium sulfate fractionation, anion-exchange, gel filtration)) chain 1: MNTTPVHALTDIDGGIAVDPAPRLAGPPVFGGPGNAAFDLAPVRSTGREMLRFDFPGVSIGAAHYEEGPTGATVIHIPAGARTAVDARGGAVGLSGGYDFNHAICLAGGAGYGLEAGAGVSGALLERLEYRTGFAELQLVSSAVIYDFSARSTAVYPDKALGRAALEFAVPGEFPQGRAGAGMSASAGKVDWDRTEITGQGAAFRRLGDVRILAVVVPNPVGVIVDRAGTVVRGNYDAQTGVRRHPVFDYQEAFAEQVPPVTQAGN chain 2: TTISAIVTNVRMSPVELNQFAKQVHSSMHRGIQPFHTDMDGDTLFAVTTDEIDLPTTPGSSRGRLSVNATALGAIASEVMWDAVLEAGK",
    "stoichiometry N": 4
  }
]
